The reported numbers originate from patent US20100099610.

EXPERIMENTAL_SYSTEM: hGHQ40N, P01241
Sequence (P01241 27-217 Q66N): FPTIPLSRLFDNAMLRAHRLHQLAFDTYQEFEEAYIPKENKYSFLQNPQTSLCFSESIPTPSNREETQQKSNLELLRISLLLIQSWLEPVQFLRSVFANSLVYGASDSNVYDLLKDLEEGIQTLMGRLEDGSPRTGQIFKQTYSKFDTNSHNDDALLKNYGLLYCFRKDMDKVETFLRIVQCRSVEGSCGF
ENDPOINT_NAME: Activity towards hGHQ40N (RFU/sec/µg), dansyl-cadaverine fluorescence kinetics
The answer should read as a number with its unit following.

Exercise: # input protein: mTGase from Streptomyces mobaraensis (protein) DSDDRVTPPAEPLDRMPDPYRPSYGRAETVVNNYIRKWQQVYSHRDGRKQQMTEEQREWLSYGCVGVTWVNSGQYPTNRLAFASFDEDRFKNELKNGRPRSGETRAEFEGRVAKESFDEEKGFQRAREVASVMNRALENAHDESAYLDNLKKELANGNDALRNEDARSPFYSALRNTPSFKERNGGNHDPSRMKAVIYSKHFWSGQDRSSSADKRKYGDPDAFRPAPGTGLVDMSRDRNIPRSPTSPGEGFVNFDYGWFGAQTEADADKTVWTHGNHYHAPNGSLGAMHVYESKFRNWSEGYSDFDRGAYVITFIPKSWNTAPDKVKQGWP ; wanted: its Activity towards hGHQ40N (RFU/sec/µg), dansyl-cadaverine fluorescence kinetics
Solution: 3.35 RFU/sec/µg
